- Assay System: T1, Human CD137 ECD (human)
- T1 construct: also called 4-1BB
- T1 sequence (chain, as listed by the source limits assumed): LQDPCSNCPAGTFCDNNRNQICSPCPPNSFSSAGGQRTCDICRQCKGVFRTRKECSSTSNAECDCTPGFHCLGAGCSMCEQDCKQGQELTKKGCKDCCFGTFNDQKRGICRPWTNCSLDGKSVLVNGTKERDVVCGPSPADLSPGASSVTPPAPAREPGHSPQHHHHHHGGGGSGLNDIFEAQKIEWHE
- Procedure Details: SPR, vs parent H183/L072
Readout Kind: fold change of affinity (fold)
State just the number; it will be interpreted in fold.

- Binder: "dBBDu183H P61R / dBBDu072L (antibody, name in Kabat numbering, V domains shown, as m1, one VH change) VH: QVQLVESGGGLVQPGRSLRLSCAASGFTFSNAWMHWVRQAPGKGLEWVAQIKDKGNAYAAYYARSVKGRFTISRDDSKNSIYLQMNSLKTEDTAVYYCHYVHYASASTVLPAFGVDAWGQGTTVTVSS VL: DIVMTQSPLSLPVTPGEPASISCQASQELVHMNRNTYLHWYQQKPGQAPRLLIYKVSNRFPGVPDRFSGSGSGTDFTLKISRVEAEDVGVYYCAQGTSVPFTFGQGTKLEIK"
  fold change of affinity, fold: 1

Consider dBBDu183H L100dE / dBBDu072L (antibody, name in Kabat numbering, V domains shown, as m1, one VH change) VH: QVQLVESGGGLVQPGRSLRLSCAASGFTFSNAWMHWVRQAPGKGLEWVAQIKDKGNAYAAYYAPSVKGRFTISRDDSKNSIYLQMNSLKTEDTAVYYCHYVHYASASTVEPAFGVDAWGQGTTVTVSS VL: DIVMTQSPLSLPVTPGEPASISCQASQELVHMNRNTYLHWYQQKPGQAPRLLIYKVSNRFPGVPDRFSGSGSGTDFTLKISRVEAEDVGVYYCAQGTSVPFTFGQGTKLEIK . Its measured fold change of affinity is 0.4

Consider dBBDu183H L100dK / dBBDu072L (antibody, name in Kabat numbering, V domains shown, as m1, one VH change) VH: QVQLVESGGGLVQPGRSLRLSCAASGFTFSNAWMHWVRQAPGKGLEWVAQIKDKGNAYAAYYAPSVKGRFTISRDDSKNSIYLQMNSLKTEDTAVYYCHYVHYASASTVKPAFGVDAWGQGTTVTVSS VL: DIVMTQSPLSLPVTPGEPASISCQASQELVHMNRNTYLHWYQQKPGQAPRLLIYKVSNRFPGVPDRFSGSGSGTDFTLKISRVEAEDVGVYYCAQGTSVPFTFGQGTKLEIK . Its measured fold change of affinity is 0.7
